# credit: patent US20120045483A1

Test Name: Serum mannitol concentration in CSB mice with osmotic pump
Type: in vivo
Stated Conditions: mouse, sc, 0.3 M (200 μl osmotic pump, continuous release), 0.3M D-Mannitol in PBS, subcutaneous osmotic pump (200 μl), read-out: Serum [mannitol] after 3 weeks
Test Readout: concentration at 3 weeks

Supply concentration at 3 weeks value. Item: OC[C@@H](O)[C@@H](O)[C@H](O)[C@H](O)CO
650 ng/mL

---

Test Name: Serum mannitol concentration in CSB mice with osmotic pump
Format: in vivo
Stated Conditions: mouse, sc, 0.03 M (200 μl osmotic pump, continuous release), 0.03M D-Mannitol in PBS, subcutaneous osmotic pump (200 μl), read-out: Serum [mannitol] after 3 weeks
Test Readout: concentration at 3 weeks (ng/mL)
Please reply with the bare figure in ng/mL and do not write the unit itself.

Supply concentration at 3 weeks value. Item: OC[C@@H](O)[C@@H](O)[C@H](O)[C@H](O)CO
100
